# Tested on: synthesis of LTB4 in human whole blood
# assay details: human whole blood (HWB) assay, LTB4 production inhibition after calcimycin stimulation
# Type: cell-based
# test conditions: heparinized human whole blood, calcimycin 20 μM, plasma LTB4 by HTRF
recorded endpoint: IC50
Answer shape: numeric part, then the unit.

Lab note: compound O=C(O)CCC1CCN(Cc2ccc([C@H]3COc4ccccc4O3)cc2)CC1 tested on synthesis of LTB4 in human whole blood; recorded IC50 was 95 nM

Record for c1cnc2c(c1)OC[C@H](c1ccc(CNC3CCC3)cc1)O2 under target or system synthesis of LTB4 in human whole blood: IC50 reported as 73 nM

# CC1CCN(Cc2ccc([C@H]3COc4cccnc4O3)cc2)CC1 with synthesis of LTB4 in human whole blood: IC50 is 28 nM

For CC(=O)N(C)C1CCN(Cc2ccc([C@H]3COc4ccccc4O3)cc2)C1 (stereo partly drawn) on synthesis of LTB4 in human whole blood, measured IC50 was 33 nM

synthesis of LTB4 in human whole blood assay, compound OCC1CCCN(Cc2ccc([C@H]3COc4ccccc4O3)cc2)C1 (stereo partly drawn) , recorded IC50 = 165 nM

# CONC(=O)CC1CCN(Cc2ccc([C@H]3COc4cccnc4O3)cc2)CC1 with synthesis of LTB4 in human whole blood: IC50 is 100 nM

Entry CN1CCC2(CCN(Cc3ccc([C@H]4COc5ccccc5O4)cc3)CC2)C1=O : IC50 on synthesis of LTB4 in human whole blood = 159 nM

Fill in: synthesis of LTB4 in human whole blood IC50 for O[C@H]1CCN(Cc2ccc(C3COc4ccccc4O3)cc2)C1 (mixture of isomers) = 285 nM

Bench note, synthesis of LTB4 in human whole blood: entry CCN(CC)Cc1ccc([C@H]2COc3cccnc3O2)cc1 , its IC50 = 33 nM

Form field, IC50 with synthesis of LTB4 in human whole blood, item NC(=O)N[C@@H]1C[C@H]2CC[C@@H](C1)N2Cc1ccc([C@H]2COc3cccnc3O2)cc1 : 110 nM

Given the compound O=C(O)C1CCN(Cc2ccc([C@H]3COc4ccccc4O3)cc2)C1 (stereo partly drawn) and test system synthesis of LTB4 in human whole blood, the measured IC50 is 250 nM

Value sought: IC50, system synthesis of LTB4 in human whole blood, item NC(=O)N1C[C@@H]2C[C@H]1CN2Cc1ccc([C@H]2COc3cccnc3O2)cc1 . Result: 66 nM

Form field IC50 for item OC[C@H]1CCCC[C@H]1NCc1ccc([C@H]2COc3ccccc3O2)cc1 on synthesis of LTB4 in human whole blood: 268 nM

Item: CNC(=O)c1nnc2n1CCN(Cc1ccc([C@H]3COc4cccnc4O3)cc1)CC2 | System: synthesis of LTB4 in human whole blood | IC50: 91 nM

The compound O=C(O)c1ccc(CC2CCN(Cc3ccc([C@H]4COc5cccnc5O4)cc3)CC2)cc1 , when measured on synthesis of LTB4 in human whole blood, yielded IC50 of 95 nM

Observed IC50, synthesis of LTB4 in human whole blood, O=C(C1CCN(Cc2ccc(C3COc4ccccc4O3)cc2)CC1)N1CCOCC1 (racemic) : 324 nM

Kindly note: synthesis of LTB4 in human whole blood, CC(=O)N1CCCC12CCN(Cc1ccc([C@H]3COc4ccccc4O3)cc1)C2 (stereo partly drawn) , IC50 value reported: 256 nM

synthesis of LTB4 in human whole blood data for O=C1OCCCN1C1CCN(Cc2ccc([C@H]3COc4cccnc4O3)cc2)CC1 ; its IC50: 56 nM
